# System: A-375
# PROCEDURE_DETAILS: Anticancer activity against human A375 cells expressing PDK assessed as reduction in cell viability after 72 hrs by MTT assay
# Type: functional, cell-based
# MEASUREMENT_CONTEXT: A-375, 72 h
Consider the following compounds; for each one, report its pIC50.
The read-out pIC50 is expressed as -log10 of concentration in moles per litre.

Look up A-375 data: pIC50 of CC1(C)CC[C@]2(C(=O)O)CC[C@]3(C)C(=CC[C@@H]4[C@@]5(C)CC[C@H](O[C@@H]6O[C@H](CO[C@@H]7OC[C@H](O)[C@H](O)[C@H]7O)[C@@H](O)[C@H](O)[C@H]6NC(=O)C(Cl)Cl)C(C)(C)[C@@H]5CC[C@]43C)[C@@H]2C1 , then report it. 5.42

Look up A-375 data: pIC50 of O=c1[nH]cc(F)c(=O)[nH]1 , then report it. 4.68

Look up A-375 data: pIC50 of CC(=O)N[C@H]1[C@H](O[C@H]2CC[C@]3(C)[C@H]4CC=C5[C@@H]6CC(C)(C)CC[C@]6(C(=O)O)CC[C@@]5(C)[C@]4(C)CC[C@H]3C2(C)C)O[C@H](CO[C@@H]2OC[C@H](O)[C@H](O)[C@H]2O)[C@@H](O)[C@@H]1O , then report it. 5.24
